Every entry's value here was drawn from ChEMBL document CHEMBL2311451.

- tgt: Muscarinic acetylcholine receptor M2 (Homo sapiens, UniProt P08172)
- Sequence (P08172 whole entry): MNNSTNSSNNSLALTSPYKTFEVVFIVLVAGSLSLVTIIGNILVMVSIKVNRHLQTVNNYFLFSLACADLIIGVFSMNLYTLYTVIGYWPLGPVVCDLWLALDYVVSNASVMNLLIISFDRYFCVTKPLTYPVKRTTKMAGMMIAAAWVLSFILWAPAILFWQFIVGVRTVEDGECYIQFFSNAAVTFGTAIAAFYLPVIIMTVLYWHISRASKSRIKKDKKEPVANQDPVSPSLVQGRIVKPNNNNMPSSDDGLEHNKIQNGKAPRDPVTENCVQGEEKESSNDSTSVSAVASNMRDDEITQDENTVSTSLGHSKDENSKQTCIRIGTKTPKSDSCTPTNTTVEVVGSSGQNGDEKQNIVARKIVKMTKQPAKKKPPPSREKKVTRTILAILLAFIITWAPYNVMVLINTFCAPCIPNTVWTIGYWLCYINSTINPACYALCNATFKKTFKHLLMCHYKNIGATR
- measurement-protocol: Positive allosteric modulation of human muscarinic M2 receptor expressed in CHO-K1 cells assessed as leftward shift in acetylcholine response treated for 144 secs prior to acetylcholine addition measured for 5 mins by Fluo-4-AM based calcium mobilization assay
compounds and their reported EC50

| smiles-notation | result-comparator | EC50, µM |
| --- | --- | --- |
| Cc1nc2sc(C(=O)NC3CC3)c(N)c2c(C)c1Cl | = | 0.55 |
| Cc1nc2sc(C(=O)NCc3ccncc3)c(N)c2c(C)c1Cl | > | 30 |

###

molecules and their reported EC50
- tgt: Muscarinic acetylcholine receptor M5 (Rattus norvegicus)
- Sequence (P08911 whole entry): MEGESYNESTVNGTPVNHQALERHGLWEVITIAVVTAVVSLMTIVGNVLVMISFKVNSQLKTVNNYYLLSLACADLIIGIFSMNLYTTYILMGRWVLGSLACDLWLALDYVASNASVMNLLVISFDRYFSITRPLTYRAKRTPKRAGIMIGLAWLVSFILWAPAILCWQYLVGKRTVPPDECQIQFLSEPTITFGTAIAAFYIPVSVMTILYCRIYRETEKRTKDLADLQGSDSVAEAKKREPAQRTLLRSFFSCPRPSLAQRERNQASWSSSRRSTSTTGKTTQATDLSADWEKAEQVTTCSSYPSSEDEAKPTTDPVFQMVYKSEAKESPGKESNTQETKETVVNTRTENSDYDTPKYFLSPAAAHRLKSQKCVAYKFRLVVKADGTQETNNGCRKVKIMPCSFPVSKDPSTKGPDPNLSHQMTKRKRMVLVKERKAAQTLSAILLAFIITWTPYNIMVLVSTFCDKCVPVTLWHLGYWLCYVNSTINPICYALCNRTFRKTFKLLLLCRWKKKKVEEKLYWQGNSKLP
- measurement-protocol: Positive allosteric modulation of rat muscarinic M5 receptor assessed as acetylcholine response

| smiles-notation | EC50 |
| --- | --- |
| Cc1nc2sc(C(=O)NCc3ccncc3)c(N)c2c(C)c1Cl | > 30 µM |
| Cc1nc2sc(C(=O)NC3CC3)c(N)c2c(C)c1Cl | > 30 µM |
